- Test system: BALB/C mouse
- ASSAY COMMENT: MTD (maximum tolerated dose) acute toxicity in mice
- Type: in vivo
- CONDITION: intravenous, observed 17 days
Provide the reported Death dose of each item.
Answers are plain numbers, in mg/kg.

Consider the worked cases shown below.
# COMPOUND, Death dose [mg/kg]
data = [
    ("CC(NC(=O)C(C)NC(=O)[C@H](O)[C@H](O)[C@@H](O[C@@H]1O[C@H](CO)[C@H](O)[C@H](O)[C@H]1O)[C@H](O)CO)C(=O)NC(CC(N)=O)C(=O)Nc1ccc(COC(=O)N(C)CCNC(=O)c2cc(Oc3ccc(NC(=O)Nc4ccc(Cl)c(C(F)(F)F)c4)cc3)ccn2)cc1 (stereo partly shown)", 350),
    ("CC(NC(=O)C(NC(=O)[C@H](O)[C@H](O)[C@@H](O[C@@H]1O[C@H](CO)[C@H](O)[C@H](O)[C@H]1O)[C@H](O)CO)C(C)O)C(=O)NC(CC(N)=O)C(=O)Nc1ccc(COC(=O)N2CC(C)(C)c3ccc(NC(=O)c4cccnc4NCc4ccncc4)cc32)cc1 (stereo partly shown)", 290),
]

Could I get Death dose for every one of these entries?
1. CNC(=O)c1cc(Oc2ccc(NC(=O)Nc3ccc(Cl)c(C(F)(F)F)c3)cc2)ccn1 [Sorafenib, reference compound]
2. CC(NC(=O)C(NC(=O)[C@H](O)[C@H](O)[C@@H](O[C@@H]1O[C@H](CO)[C@H](O)[C@H](O)[C@H]1O)[C@H](O)CO)C(C)O)C(=O)NC(CC(N)=O)C(=O)Nc1ccc(COC(=O)N(C)CCNC(=O)c2cc(Oc3ccc(NC(=O)Nc4ccc(Cl)c(C(F)(F)F)c4)cc3)ccn2)cc1 (stereo partly shown)
3. CC(NC(=O)C(C)NC(=O)[C@H](O)[C@H](O)[C@@H](O[C@@H]1O[C@H](CO)[C@H](O)[C@H](O)[C@H]1O)[C@H](O)CO)C(=O)NC(CC(N)=O)C(=O)Nc1ccc(COC(=O)N2CC(C)(C)c3ccc(NC(=O)c4cccnc4NCc4ccncc4)cc32)cc1 (stereo partly shown)
4. CC(NC(=O)C(NC(=O)[C@H](O)[C@H](O)[C@@H](O[C@@H]1O[C@H](CO)[C@H](O)[C@H](O)[C@H]1O)[C@H](O)CO)C(C)C)C(=O)NC(CC(N)=O)C(=O)Nc1ccc(COC(=O)Nc2c(-c3nc4ccc(N5CCN(C)CC5)cc4[nH]3)c(=O)[nH]c3cccc(F)c23)cc1 (stereo partly shown)
5. CC(NC(=O)C(NC(=O)[C@H](O)[C@H](O)[C@@H](O[C@@H]1O[C@H](CO)[C@H](O)[C@H](O)[C@H]1O)[C@H](O)CO)C(C)C)C(=O)NC(CC(N)=O)C(=O)Nc1ccc(COC(=O)N(C)CCNC(=O)c2cc(Oc3ccc(NC(=O)Nc4ccc(Cl)c(C(F)(F)F)c4)cc3)ccn2)cc1 (stereo partly shown)

1. 12
2. 360
3. 290
4. 330
5. 345

###

- Tested on: CT26 tumor cells
- ASSAY COMMENT: CT26 immunotherapy model (Example 15)
- Format: in vivo, mice
- CONDITION: 10 in each group
Please provide measured Number of cures for the entries that follow.

# MOLECULE, MEASUREMENT TARGET, Number of cures
data = [
    ("CC(NC(=O)C(NC(=O)[C@H](O)[C@H](O)[C@@H](O[C@@H]1O[C@H](CO)[C@H](O)[C@H](O)[C@H]1O)[C@H](O)CO)C(C)O)C(=O)NC(CC(N)=O)C(=O)Nc1ccc(COC(=O)N(C)CCNC(=O)c2cc(Oc3ccc(NC(=O)Nc4ccc(Cl)c(C(F)(F)F)c4)c(F)c3)ccn2)cc1 (some centres unmarked)", "CT26 tumor cells", 8),
]

Entry CC(NC(=O)C(NC(=O)[C@H](O)[C@H](O)[C@@H](O[C@@H]1O[C@H](CO)[C@H](O)[C@H](O)[C@H]1O)[C@H](O)CO)C(C)C)C(=O)NC(CC(N)=O)C(=O)Nc1ccc(COC(=O)N(C)CCNC(=O)c2cc(Oc3ccc(NC(=O)Nc4ccc(Cl)c(C(F)(F)F)c4)cc3)ccn2)cc1 (some centres unmarked) , tested on CT26 tumor cells, has a reported Number of cures of 7
